tested on: SF-539 CNS; experiment: NCI-60 one-dose screen, 48 h; details: 10 µM unless noted
The panel holds about 83,000 compounds, 20% with a hit somewhere; the sample as a whole holds those more often. Activity calls are given as the source filed them. How the source made its calls: active means growth percent below 10; inactive means the rest.
Parameter call: string, one of active, inactive

Problem: Fill in: this test's call for C=C(CC(=O)OC)C(C)=O is ___
Solution: inactive

Problem: Now the same for COc1ccc2nc3c(cc2c1)C(=O)CC(c1ccccc1)C3 (stereo unspecified)
Solution: active

Problem: Do the same for CCOc1ccc2sc(NS(=O)(=O)c3ccc(N)cc3)nc2c1 please
Solution: inactive

Problem: Now consider CCOC(=O)COc1c(C)cc(SSc2cc(C)c(OCC(=O)OCC)c(C)c2)cc1C and answer again.
Solution: inactive

Problem: Same lookup for CCOc1cc(NC(=O)c2ccccc2)c(OCC)cc1N , please.
Solution: inactive

Problem: One more compound: O=C(Nc1ccc(C(=O)/C=C/c2ccc(N3CCOCC3)cc2)cc1)Nc1ccc([N+](=O)[O-])cc1
Solution: inactive

More entries:
Problem: Outcome? Cc1c(Cn2cc(COc3ccc(Br)cc3)nn2)c(C)c(Cn2cc(COc3ccc(Br)cc3)nn2)c(C)c1Cn1cc(COc2ccc(Br)cc2)nn1
Solution: inactive

Problem: Also check NC(=O)c1c(NC(=O)COC(=O)Cc2ccccc2F)sc2c1CCC2
Solution: inactive

Problem: And for CCN(CC)c1ccc2cc(C(Nc3ccc(Br)c(C(F)(F)F)c3)c3nnnn3C(C)(C)C)c(=O)oc2c1 (stereo unspecified) ?
Solution: inactive

Problem: Would you kindly repeat that for CC(C)C1=NOC(=O)C1=Cc1cn(-c2cccnc2)nc1-c1ccccc1 ?
Solution: inactive

Problem: For CC[C@]12C=CCN3CC[C@@]4(c5ccc(OC)cc5N(C)[C@H]4[C@@](O)(C(=O)OC)[C@@H]1OC(=O)CCC(=O)O[C@H]1CC[C@H]4[C@@H]5CCC6=CC(=O)CC[C@@H]6[C@H]5CC[C@]14C)[C@@H]32 then?
Solution: active

----------
system: LOX IMVI melanoma; assay: NCI-60 one-dose screen, 48 h; conditions: 10 µM unless noted
About 83,000 compounds went through this panel and 20% of them were active in at least one assay; those are over-represented in the sample as a whole. Activity calls are given as the source filed them. Rule for the calls: active = growth percent below 10; inactive = the rest.
Pick from yes (1) (active), no (0) (inactive) when you respond.

Problem: Which outcome was assigned to CS(=O)(=O)c1cccnn1 in this test?
Solution: no (0)

Problem: What would you report for COc1ccc2nc3cc(Cl)ccc3c(Nc3ccc(O)cc3)c2c1 ?
Solution: no (0)

Problem: Next compound up: CNc1cc(C(=O)O)nc(NC)n1
Solution: no (0)

Problem: And for Nc1cc(NN=C(c2ccc(O)cc2)c2ccc(O)cc2)c([N+](=O)[O-])cc1[N+](=O)[O-] ?
Solution: yes (1)

Problem: # repeat for CCN(CC)CCSC(=O)C(O)(c1ccccc1)C1CCCC1 (stereo unspecified)
Solution: no (0)

Problem: Please answer likewise for COc1ccc(NC(=S)NNc2ccc(-c3ccc(OC)c(OC)c3)nn2)cc1
Solution: no (0)

----------
system: M14 melanoma; assay: NCI-60 one-dose screen, 48 h; conditions: 10 µM unless noted
About 83,000 compounds went through this panel and 20% of them were active in at least one assay; those are over-represented in the sample as a whole. Active and inactive are the calls of the source. Rule for the calls: active = growth percent below 10; inactive = the rest.
Pick one: active, inactive

Check out these entries, answers already filled in.
Problem: Per the assay record, what outcome was assigned to N#C/C(C(=O)c1ccccc1)=C1/C(=O)Nc2ccc(Br)cc21 ?
Solution: inactive

Problem: Next entry: CCOc1cccc2c(NC(C)CCCN(CC)CC)c(C)cnc12 (stereo unspecified)
Solution: inactive

Problem: Next entry: Cc1cc(C)c(-c2cc(O)c(-c3c(C)cc(C)cc3C)cc2O)c(C)c1
Solution: inactive

Problem: What about CCN(CC)c1cc(N)c(Cc2c(N)cc(N(CC)CC)cc2Cl)c(Cl)c1 ?
Solution: inactive

---
Problem: Field: outcome | Entry: COC(=O)C(=Cc1ccccc1[N+](=O)[O-])C(=O)OC
Solution: inactive

Problem: Also need CCCN1CC(c2ccc(OC)c(OC)c2)=C(c2cn(C(=O)OCC)c3ccccc23)C1=O , thanks.
Solution: inactive

Problem: Now give it for NS(=O)(=O)c1ccc(CCN2C(=O)/C(=C\c3ccccc3)C=C2c2ccc(Cl)cc2)cc1 too.
Solution: inactive

Problem: # repeat for O=C(COc1cccc(/C=C2\Oc3ccccc3C2=O)c1)c1ccc([N+](=O)[O-])cc1
Solution: inactive

Problem: Check O=C(O)c1ccccc1C(F)(F)F too.
Solution: inactive

Problem: Repeat with O=C1/C(=C/c2cccc(OCc3ccccc3)c2)Oc2cc(OCCN3CCCCC3)ccc21
Solution: inactive

Problem: Try this molecule too: CC(C)=CCC[C@](C)(O)[C@H]1CC[C@]2(C)[C@@H]1CC[C@@H]1[C@@]3(C)CC[C@H](OC(=O)CCC(=O)O)C(C)(C)[C@@H]3CC[C@]12C
Solution: inactive

Problem: What do you get for CS(=O)(=O)c1cccnn1 ?
Solution: inactive

Problem: Can you check COc1ccc(C(=O)c2nccc3cc(OC)c(OC)cc23)cc1OC next?
Solution: inactive

Problem: Likewise for CC(C)CSc1ncnc2nc[nH]c12 ?
Solution: inactive

Problem: Now the molecule COc1cc(C)cc2oc3oc(=O)c(C(=O)c4cc5cc(Br)ccc5o4)cc3c(=O)c12
Solution: inactive
